# target-of-assay: GroEL/ES (Escherichia coli, UniProt P0A6F5)
# Construct: made in house; host or cells: GroEL in E. coli DH5a; GroES in E. coli BL21 (DE3)
# Sequence (P0A6F5 2-548): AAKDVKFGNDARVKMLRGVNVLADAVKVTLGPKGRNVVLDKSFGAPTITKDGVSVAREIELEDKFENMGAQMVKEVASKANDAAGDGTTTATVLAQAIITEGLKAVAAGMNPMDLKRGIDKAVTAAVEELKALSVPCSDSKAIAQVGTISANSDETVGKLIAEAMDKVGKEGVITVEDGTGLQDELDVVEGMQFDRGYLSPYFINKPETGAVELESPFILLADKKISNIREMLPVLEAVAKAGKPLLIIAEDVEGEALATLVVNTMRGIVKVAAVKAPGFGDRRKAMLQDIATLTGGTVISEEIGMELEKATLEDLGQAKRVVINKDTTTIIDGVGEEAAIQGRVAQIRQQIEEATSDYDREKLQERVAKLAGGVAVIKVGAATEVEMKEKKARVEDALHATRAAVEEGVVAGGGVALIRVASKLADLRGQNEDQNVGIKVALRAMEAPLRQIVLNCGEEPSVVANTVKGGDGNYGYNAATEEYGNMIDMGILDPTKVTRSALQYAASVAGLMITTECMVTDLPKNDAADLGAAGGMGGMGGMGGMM
# assay-protocol: GroEL/ES-mediated dMDH refolding assay
# Assay type: biochemical, E. coli
# condition-info: read-out: Biochemical Assay IC50 GroEL/ES-dMDH Refolding; Table 3; 37° C., 1 mM ATP
parameter: IC50

[Q] Lab note: need IC50 with GroEL/ES (Escherichia coli, UniProt P0A6F5) for entry O=C(Nc1ccc([N+](=O)[O-])cc1Cl)c1cc(Cl)ccc1O [Niclosamide, reference compound] , please look it up.
[A] > 100 µM

###

# target-of-assay: GroEL/ES (Escherichia coli, UniProt P0A6F5)
# Construct: made in house; host or cells: GroEL in E. coli DH5a; GroES in E. coli BL21 (DE3)
# assay-protocol: GroEL/ES-mediated dMDH refolding assay
# Assay type: biochemical, E. coli
parameter: IC50 (µM)
Express your answer in µM, writing the number without its unit.

[Q] What value of measured IC50 is listed for Cc1cc(C(C#N)c2ccc(Cl)cc2)c(Cl)cc1NC(=O)c1ccc([N+](=O)[O-])cc1 (centres unmarked) ?
[A] 37

[Q] What value of measured IC50 is listed for O=C(Nc1ccc(Sc2nc3ccccc3s2)cc1)c1cc(Cl)ccc1O ?
[A] 24

[Q] What value of measured IC50 is listed for Cc1cc(C(C#N)c2ccc(Cl)cc2)c(Cl)cc1NC(=O)c1ccccc1Cl (centres unmarked) ?
[A] 54

[Q] What value of measured IC50 is listed for Cc1cc(C(C#N)c2ccc(Cl)cc2)c(Cl)cc1NC(=O)c1cccc(Br)c1O (centres unmarked) ?
[A] 12

[Q] What value of measured IC50 is listed for COc1ccccc1C(=O)Nc1cc(Cl)c(C(C#N)c2ccc(Cl)cc2)cc1C (centres unmarked) ?
[A] 72

[Q] What value of measured IC50 is listed for Cc1cc(C(C#N)c2ccc(Cl)cc2)c(Cl)cc1NC(=O)c1ccccc1O (centres unmarked) ?
[A] 33

[Q] What value of measured IC50 is listed for Cc1cc(C(C#N)c2ccc(Cl)cc2)c(Cl)cc1NC(=O)c1cc(Cl)cc(Cl)c1O (centres unmarked) ?
[A] 3.7

[Q] What value of measured IC50 is listed for Cc1cc(C(C#N)c2ccc(Cl)cc2)c(Cl)cc1NC(=O)c1cccc(Cl)c1 (centres unmarked) ?
[A] 63

[Q] What value of measured IC50 is listed for COc1c(Cl)cc(Cl)cc1C(=O)Nc1cc(Cl)c(C(C#N)c2ccc(Cl)cc2)cc1C (centres unmarked) ?
[A] 38

[Q] What value of measured IC50 is listed for Cc1cc(C(C#N)c2ccc(Cl)cc2)c(Cl)cc1NC(=O)c1cccc(O)c1 (centres unmarked) ?
[A] 55

[Q] What value of measured IC50 is listed for COc1ccc(C)cc1C(=O)Nc1cc(Cl)c(C(C#N)c2ccc(Cl)cc2)cc1C (centres unmarked) ?
[A] 86

[Q] What value of measured IC50 is listed for Cc1cc(C(C#N)c2ccc(Cl)cc2)c(Cl)cc1NC(=O)c1ccc(Br)cc1 (centres unmarked) ?
[A] 58

[Q] What value of measured IC50 is listed for COC(=O)c1ccc(NC(=O)c2cc(Cl)ccc2OC)cc1 ?
[A] 46

###

# assay-protocol: HEK 293 kidney cell viability / cytotoxicity assay (Alamar Blue)
# Type: cell-based
# condition-info: human, HEK 293 kidney cells; Table 2; 48 h incubation, Alamar Blue; read-out: HEK 293 Kidney Cell Viability CC50
parameter: CC50 at 48 h (µM)
Express your answer in µM, writing the number without its unit.

[Q] What value of measured CC50 at 48 h is listed for Cc1cc(C(C#N)c2ccc(Cl)cc2)c(Cl)cc1NC(=O)c1cccc(N)c1 (centres unmarked) [Compound 71] ?
[A] 35

[Q] What value of measured CC50 at 48 h is listed for CC(=O)Nc1cc(Cl)c(C(C#N)c2ccc(Cl)cc2)cc1C (centres unmarked) [Compound 83] ?
[A] 83

[Q] What value of measured CC50 at 48 h is listed for Cc1cc(C(C#N)c2ccc(Cl)cc2)c(Cl)cc1NC(=O)c1ccc(O)cc1 (centres unmarked) [Compound 66] ?
[A] 65

[Q] What value of measured CC50 at 48 h is listed for Cc1cc(C(C#N)c2ccc(Cl)cc2)c(Cl)cc1NC(=O)c1ccc(Cl)cc1 (centres unmarked) [Compound 78] ?
[A] 50

[Q] What value of measured CC50 at 48 h is listed for Cc1cc(C(C#N)c2ccc(Cl)cc2)c(Cl)cc1NC(=O)c1ccccc1F (centres unmarked) [Compound 79] ?
[A] 85

###

# assay-protocol: HEK 293 kidney cell viability / cytotoxicity assay (Alamar Blue)
# Format: cell-based
# condition-info: human, HEK 293 kidney cells; Table 2; 48 h incubation, Alamar Blue; read-out: HEK 293 Kidney Cell Viability CC50
parameter: CC50 at 48 h (µM)
Express your answer in µM, writing the number without its unit.

[Q] What value of measured CC50 at 48 h is listed for Cc1cc(C(C#N)c2ccc(Cl)cc2)c(Cl)cc1NC(=O)c1ccccc1N (stereo not shown) [Compound 70] ?
[A] 32

[Q] What value of measured CC50 at 48 h is listed for Cc1cc(C(C#N)c2ccc(Cl)cc2)c(Cl)cc1NC(=O)c1ccc(Br)cc1 (stereo not shown) [Compound 75] ?
[A] 33

[Q] What value of measured CC50 at 48 h is listed for Cc1cc(C(C#N)c2ccc(Cl)cc2)c(Cl)cc1NC(=O)c1ccc(N)cc1 (stereo not shown) [Compound 72] ?
[A] 53

###

# assay-protocol: HEK 293 kidney cell viability / cytotoxicity assay (Alamar Blue)
# Format: cell-based
# condition-info: human; Table 2; 48 h incubation, Alamar Blue; read-out: HEK 293 Kidney Cell Viability CC50
Label Fulfilled when CC50 at 48 h is strictly below 30 µM; otherwise label Not fulfilled.

[Q] Given Cc1cc(C(C#N)c2ccc(Cl)cc2)c(Cl)cc1NC(=O)c1cccc(Cl)c1O (centres unmarked) [Compound 54] , is recorded CC50 at 48 h strictly lower than 30 µM?
[A] Not fulfilled

[Q] Given Cc1cc(C(C#N)c2ccc(Cl)cc2)c(Cl)cc1NC(=O)c1cc(Br)ccc1O (centres unmarked) [Compound 50] , is recorded CC50 at 48 h strictly lower than 30 µM?
[A] Fulfilled

[Q] Given Cc1cc(C(C#N)c2ccc(Cl)cc2)c(Cl)cc1NC(=O)c1ccc(Cl)cc1O (centres unmarked) [Compound 56] , is recorded CC50 at 48 h strictly lower than 30 µM?
[A] Fulfilled

[Q] Given Cc1cc(C(C#N)c2ccc(Cl)cc2)c(Cl)cc1NC(=O)c1cc(Cl)ccc1O (centres unmarked) [Compound 58] , is recorded CC50 at 48 h strictly lower than 30 µM?
[A] Fulfilled

[Q] Given COc1ccc(Cl)cc1C(=O)Nc1cc(Cl)c(C(C#N)c2ccc(Cl)cc2)cc1C (centres unmarked) [Compound 57] , is recorded CC50 at 48 h strictly lower than 30 µM?
[A] Fulfilled

[Q] Given COc1ccc(C)cc1C(=O)Nc1cc(Cl)c(C(C#N)c2ccc(Cl)cc2)cc1C (centres unmarked) [Compound 59] , is recorded CC50 at 48 h strictly lower than 30 µM?
[A] Not fulfilled

[Q] Given COc1c(Cl)cc(Cl)cc1C(=O)Nc1cc(Cl)c(C(C#N)c2ccc(Cl)cc2)cc1C (centres unmarked) [Compound 51] , is recorded CC50 at 48 h strictly lower than 30 µM?
[A] Not fulfilled

[Q] Given COc1c(Br)cc(Br)cc1C(=O)Nc1cc(Cl)c(C(C#N)c2ccc(Cl)cc2)cc1C (centres unmarked) [Compound 45] , is recorded CC50 at 48 h strictly lower than 30 µM?
[A] Not fulfilled

###

# target-of-assay: HSP60/10 (Homo sapiens, UniProt P10809)
# Construct: octa-Histidine (His8) tag, TEV-cleavable (N, cleaved yes); made in house; host or cells: HSP60 in Rosetta 2 (DE3) E. coli; HSP10 in Rosetta 2 (DE3) pLysS
# Sequence (P10809 27-573): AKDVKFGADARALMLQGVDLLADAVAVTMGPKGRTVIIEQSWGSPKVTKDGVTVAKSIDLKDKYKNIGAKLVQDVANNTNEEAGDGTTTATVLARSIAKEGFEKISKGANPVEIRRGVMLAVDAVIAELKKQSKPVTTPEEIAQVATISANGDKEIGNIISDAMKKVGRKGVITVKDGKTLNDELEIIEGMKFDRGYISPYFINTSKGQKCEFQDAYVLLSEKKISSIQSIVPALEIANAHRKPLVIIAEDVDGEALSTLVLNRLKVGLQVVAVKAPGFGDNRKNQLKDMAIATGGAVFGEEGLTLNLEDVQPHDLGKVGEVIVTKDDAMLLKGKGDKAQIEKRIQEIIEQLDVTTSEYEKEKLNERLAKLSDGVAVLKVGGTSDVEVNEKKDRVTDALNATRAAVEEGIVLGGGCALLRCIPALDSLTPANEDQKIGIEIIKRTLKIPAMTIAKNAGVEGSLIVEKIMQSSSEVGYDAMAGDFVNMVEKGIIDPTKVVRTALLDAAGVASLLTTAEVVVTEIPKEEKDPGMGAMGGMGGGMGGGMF
# assay-protocol: HSP60/10-mediated dMDH refolding assay
# Type: biochemical
# condition-info: Table 2; 37° C., 1 mM ATP; read-out: Biochemical Assay IC50 HSP60/10-dMDH Refolding
pIC50: −log10 of the molar value.
For each record, write down the corresponding pIC50.

[Q] What value of measured pIC50 is listed for COc1ccccc1C(=O)Nc1cc(Cl)c(C(C#N)c2ccc(Cl)cc2)cc1C (centres unmarked) [Compound 61] ?
[A] < 4.00

[Q] What value of measured pIC50 is listed for COc1ccc(C(=O)Nc2cc(Cl)c(C(C#N)c3ccc(Cl)cc3)cc2C)cc1 (centres unmarked) [Compound 63] ?
[A] < 4.00

[Q] What value of measured pIC50 is listed for COc1c(Br)cccc1C(=O)Nc1cc(Cl)c(C(C#N)c2ccc(Cl)cc2)cc1C (centres unmarked) [Compound 47] ?
[A] < 4.00

[Q] What value of measured pIC50 is listed for Cc1cc(C(C#N)c2ccc(Cl)cc2)c(Cl)cc1NC(=O)c1ccccc1N (centres unmarked) [Compound 70] ?
[A] < 4.00

[Q] What value of measured pIC50 is listed for COc1ccc(Br)cc1C(=O)Nc1cc(Cl)c(C(C#N)c2ccc(Cl)cc2)cc1C (centres unmarked) [Compound 49] ?
[A] < 4.00

[Q] What value of measured pIC50 is listed for COc1cccc(C(=O)Nc2cc(Cl)c(C(C#N)c3ccc(Cl)cc3)cc2C)c1 (centres unmarked) [Compound 62] ?
[A] < 4.00

[Q] What value of measured pIC50 is listed for Cc1cc(C(C#N)c2ccc(Cl)cc2)c(Cl)cc1NC(=O)c1ccccc1[N+](=O)[O-] (centres unmarked) [Compound 67] ?
[A] < 4.00

[Q] What value of measured pIC50 is listed for Cc1cc(C(C#N)c2ccc(Cl)cc2)c(Cl)cc1NC(=O)c1ccc(Cl)cc1O (centres unmarked) [Compound 56] ?
[A] 4.77

[Q] What value of measured pIC50 is listed for Cc1cc(C(C#N)c2ccc(Cl)cc2)c(Cl)cc1NC(=O)c1cc(Cl)cc(Cl)c1O (centres unmarked) [Compound 52] ?
[A] 5.28

[Q] What value of measured pIC50 is listed for Cc1cc(C(C#N)c2ccc(Cl)cc2)c(Cl)cc1NC(=O)c1ccccc1O (centres unmarked) [Compound 64] ?
[A] 4.30

[Q] What value of measured pIC50 is listed for Cc1cc(C(C#N)c2ccc(Cl)cc2)c(Cl)cc1NC(=O)c1cc(Br)ccc1O (centres unmarked) [Compound 50] ?
[A] 4.70

[Q] What value of measured pIC50 is listed for Cc1cc(C(C#N)c2ccc(Cl)cc2)c(Cl)cc1NC(=O)c1cccc(Br)c1O (centres unmarked) [Compound 48] ?
[A] 5.11

[Q] What value of measured pIC50 is listed for Cc1cc(C(C#N)c2ccc(Cl)cc2)c(Cl)cc1NC(=O)c1cc(Br)cc(Br)c1O (centres unmarked) [Compound 46] ?
[A] 5.62

[Q] What value of measured pIC50 is listed for Cc1cc(C(C#N)c2ccc(Cl)cc2)c(Cl)cc1NC(=O)c1ccccc1F (centres unmarked) [Compound 79] ?
[A] < 4.00

[Q] What value of measured pIC50 is listed for Cc1cc(C(C#N)c2ccc(Cl)cc2)c(Cl)cc1NC(=O)c1ccc([N+](=O)[O-])cc1 (centres unmarked) [Compound 69] ?
[A] < 4.00

[Q] What value of measured pIC50 is listed for Cc1cc(C(C#N)c2ccc(Cl)cc2)c(Cl)cc1NC(=O)c1ccc(Cl)cc1 (centres unmarked) [Compound 78] ?
[A] < 4.00

[Q] What value of measured pIC50 is listed for Cc1cc(C(C#N)c2ccc(Cl)cc2)c(Cl)cc1NC(=O)c1cccc(Br)c1 (centres unmarked) [Compound 74] ?
[A] < 4.00
